# System: Italian ryegrass
# assay remarks: Test C pre-/postemergence test
# Type: in vivo, Lolium multiflorum
# setup conditions: 62 g ai/ha, Preemergence; scale 0 to 100
# Text: Seeds of plant species selected from blackgrass (Alopecurus myosuroides), downy brome (Bromus tectorum), green foxtail (Setaria viridis), Italian ryegrass (Lolium multiflorum), wheat (Triticum aestivum), wild oat (Avena fatua), catchweed bedstraw (Galium aparine), Russian thistle (Salsola kali), […] […]
Consider the following compounds and their measured Ryegrass, Italian plant response rating readings.
# respond with the number and nothing more

Known Ryegrass, Italian plant response rating results, listed for orientation:
                                   compound                             readout_type  numeric_readout
0  Cn1nc(C(F)(F)F)c(C[S+]([O-])c2cccc[n+]2[O-])c1OCC(F)F (centres unmarked)  Ryegrass, Italian plant response rating               70
1  CC(Oc1c(C[S+]([O-])c2cccc[n+]2[O-])c(C(F)(F)F)nn1C)C(F)(F)F (centres unmarked)  Ryegrass, Italian plant response rating               98
2  Cn1nc(C(F)(F)F)c(C[S+]([O-])c2ccc(Cl)c[n+]2[O-])c1Cl (racemic)  Ryegrass, Italian plant response rating               60
3  Cn1nc(C(F)(F)F)c(C(Cl)S(=O)(=O)c2cccc[n+]2[O-])c1OC(F)F (centres unmarked)  Ryegrass, Italian plant response rating               30

Query Ryegrass, Italian plant response rating on Italian ryegrass for Cc1cc[n+]([O-])c([S+]([O-])Cc2c(C(F)(F)F)nn(C)c2OCC(F)(F)F)c1 (racemic)
70

Query Ryegrass, Italian plant response rating on Italian ryegrass for `Cn1nc(OC(F)F)c(CS(=O)(=O)c2cccc[n+]2[O-])c1C(F)(F)F`
70

Query Ryegrass, Italian plant response rating on Italian ryegrass for Cn1nc(C(F)(F)C(F)(F)F)c(C[S+]([O-])c2ccc(Cl)c[n+]2[O-])c1OCC(F)(F)F (centres unmarked)
80

Query Ryegrass, Italian plant response rating on Italian ryegrass for CC(Oc1c(C[S+]([O-])c2ccc(Cl)c[n+]2[O-])c(C(F)(F)F)nn1C)C(F)(F)F (centres unmarked)
95

Query Ryegrass, Italian plant response rating on Italian ryegrass for `Cn1nc(C(F)(F)F)c(CS(=O)(=O)c2cccc[n+]2[O-])c1OCC(F)F`
0

Query Ryegrass, Italian plant response rating on Italian ryegrass for CC(c1c(C(F)(F)F)nn(C)c1OCC(F)(F)F)S(=O)(=O)c1cccc[n+]1[O-] (racemic)
80

Query Ryegrass, Italian plant response rating on Italian ryegrass for Cc1cc[n+]([O-])c(S(=O)(=O)C(Cl)c2c(C(F)(F)F)nn(C)c2Cl)c1 (racemic)
40

Query Ryegrass, Italian plant response rating on Italian ryegrass for Cc1cc[n+]([O-])c([S+]([O-])Cc2c(C(F)(F)F)nn(C)c2Cl)c1 (racemic)
60

Query Ryegrass, Italian plant response rating on Italian ryegrass for Cn1nc(C(F)(F)F)c(C[S+]([O-])c2ccc(Cl)c[n+]2[O-])c1OCC(F)(F)F (racemic)
85

Query Ryegrass, Italian plant response rating on Italian ryegrass for `Cn1nc(C(F)(F)F)c(CS(=O)(=O)c2ccc(Cl)c[n+]2[O-])c1Cl`
0

Query Ryegrass, Italian plant response rating on Italian ryegrass for Cn1nc(C(F)(F)F)c(C(Cl)S(=O)(=O)c2cccc[n+]2[O-])c1OCC(F)(F)F (racemic)
98

Query Ryegrass, Italian plant response rating on Italian ryegrass for Cc1cc([S+]([O-])Cc2c(C(F)(F)F)nn(C)c2OCC(F)(F)F)[n+]([O-])cc1Cl (centres unmarked)
85

Query Ryegrass, Italian plant response rating on Italian ryegrass for CC(C)c1cc[n+]([O-])c([S+]([O-])Cc2c(C(F)(F)F)nn(C)c2OC(F)F)c1 (centres unmarked)
0
